Consider the following binders; for each one, report its Kd.
# experimentalTarget: T1, PUF4 RNA-binding domain (Saccharomyces cerevisiae, UniProt P25339 537-888)
# T1 sequence: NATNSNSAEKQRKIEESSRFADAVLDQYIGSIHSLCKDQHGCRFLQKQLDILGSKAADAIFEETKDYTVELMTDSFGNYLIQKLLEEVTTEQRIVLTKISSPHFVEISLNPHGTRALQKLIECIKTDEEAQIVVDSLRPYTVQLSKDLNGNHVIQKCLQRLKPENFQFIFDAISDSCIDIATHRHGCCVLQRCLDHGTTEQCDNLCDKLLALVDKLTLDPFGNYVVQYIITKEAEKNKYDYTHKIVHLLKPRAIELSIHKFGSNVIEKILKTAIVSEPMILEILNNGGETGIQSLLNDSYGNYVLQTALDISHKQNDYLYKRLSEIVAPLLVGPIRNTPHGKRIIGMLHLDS
# assayProtocol: Mg; RNA-MaP; 20 mM Na-HEPES pH 7.4, 30 mM KOAc, 0.75 mM MgCl2, 0.1% Tween-20, 5% glycerol, 0.1 mg/mL BSA, 2 mM DTT; 25 C; 0.0125-409.6 nM protein
# experimentalSetup: tags: N-His6-TEV cleaved; C-SNAP kept, Cy3B-labelled; label: tethered on chip by stalled RNA polymerase
Answer in nM, number only, no unit symbol.

Task: Return reported Kd; argument: Ic_S4_P3E.1_K3.1_C3.1_H3.1_A3.1_[A6T]_F3.1_[A8G]_T3.1 (ssRNA) RNA: UUUGACAACUGAUCGUUCUUUCUUGUAUUUGUUCUUUCUCGAUCAGUUGUCUUU
Result: 46.7

Task: For the binder UCUCUUUGUAGUUCCUCUCUU (ssRNA) [Ic_S1_P4E.1_K4.1_C4.1_H4.1_A4.1_[T5G]_[A6T]_F4.1_[T8C]_[A9C]_T4.1] , what Kd is on record?
Result: 1260
